Tested on: UO-31
experimentSummary: NCI tumour cell line growth inhibition, 48 h
Calls of active or inactive are those of the source. No stated cut-off is given here; in the data, active = GI50 up to about 1.1 µM and inactive = higher.
Would you mind answering with one of these outcomes? active, inactive

Reference set, count: 3
1) CC1=CC[C@@H]2[C@@H](CC[C@@]2(C)O)C(C)(C)[C@H]1CC[C@@H]1[C@@]2(C)CCC(=O)C(C)(C)O[C@@H]2CC[C@]1(C)O; inactive
2) COC(=O)C1=CCON(c2ccccc2)C1c1ccccc1 (stereo not given); inactive
3) Cc1cccc(Br)[n+]1[O-]; inactive

Entry S=C(N/N=C(/c1ccccc1)c1ccccn1)N1CCCCC1 : call = ?
active

Dear colleague, could you share the recorded outcome for CCOC(=O)O/N=C1/C(=C2/C(=O)Nc3ccccc32)Nc2ccccc21 when you have a moment?
inactive
